The reported numbers originate from PubChem BioAssay AID276.

# Tested on: B6C3F1 mice, Lewis lung carcinoma iv, survival T/C
# MEASUREMENT_NOTES: NCI In Vivo Anticancer Drug Screen. Data for tumor model Lewis Lung Carcinoma (intravenous) in B6C3F1 mice
# CONDITION_DETAILS: endpoint: median survival time; dose: 12.5 mg/kg/injection; schedule: Q01DX009 (ip); vehicle: distilled water + Tween-80
Toxic doses and inconclusive results are not listed. Rule for the calls: active = survival T/C of 150% or more; inactive = T/C below 125% in these data. Residues, ends and D or L forms follow the SMILES beside them. *: point of attachment. Trt = c1ccc(C(c2ccccc2)(c2ccccc2)*)cc1; Cbz = O=C(OCc1ccccc1)*
Outcome codes: class 1 = active, class 0 = inactive

MOLECULE	LABEL_VALUE
CCc1nc(N)nc(N)c1-c1ccc(Cl)c(N=[N+]=[N-])c1	class 0
CC(C)N1CC(COc2cccc3ccccc23)OP1(=O)N(CCCl)CCCl (stereo unspecified)	class 0
COc1ccc2c(c1)CCn1c(C)c(COC(=O)NC(C)C)c(COC(=O)NC(C)C)c1-2	class 0
O=C(O)CCCCCCCC(=O)O	class 0
COC(=O)C(CSC(c1ccccc1)(c1ccccc1)c1ccccc1)NC(=O)C(CC(N)=O)NC(=O)OCc1ccccc1 (stereo not drawn) (Cbz-Asn-Cys(Trt)-OMe; configuration not given here)	class 0
NC(=S)N/N=C\c1ncccc1OCc1cccc(N)c1	class 0
COc1cccc2c1C(=O)c1c(O)c3c(c(O)c1C2=O)C[C@@](O)(C(=O)CO)C[C@@H]3OC1CC(OC(C)=O)C(OC(C)=O)C(C)O1 (stereo partly specified)	class 1
CCOC(=O)c1ccc(NN=NCCF)cc1	class 0
CNC(=O)OCc1c(COC(=O)NC)c(-c2ccc(Cl)c(Cl)c2)n2c1Cc1ccccc1C2	class 0
CCCCCCCCCCCC(=O)NC1CC(O[C@H]2C[C@](O)(C(=O)CO)Cc3c(O)c4c(c(O)c32)C(=O)c2c(OC)cccc2C4=O)OC(C)C1O (stereo partly specified)	class 0
CC(=O)Oc1c[nH]c(=O)[nH]c1=O	class 0

###

# Test system: B6C3F1 mice, Lewis lung carcinoma iv, survival T/C
# MEASUREMENT_NOTES: NCI In Vivo Anticancer Drug Screen. Data for tumor model Lewis Lung Carcinoma (intravenous) in B6C3F1 mice
# CONDITION_DETAILS: endpoint: median survival time; dose: 1.56 mg/kg/injection; schedule: Q01DX009 (ip); vehicle: saline with Tween-80; higher = longer survival
Inconclusive results and toxic doses are left out.
TEST_READOUT: T/C

MOLECULE	TARGET_ENTITY	OBS_VALUE
NC(=O)/C=C/C(=O)c1c(Cl)cccc1Cl	B6C3F1 mice, Lewis lung carcinoma iv, survival T/C	88 % of control
O/N=C/c1ccccc1O.O/N=C/c1ccccc1O.[Cu]	B6C3F1 mice, Lewis lung carcinoma iv, survival T/C	113 % of control
C[CH2][Sn]1([CH2]C)[O]OC(c2ccccc2)[O]1 (stereo not drawn)	B6C3F1 mice, Lewis lung carcinoma iv, survival T/C	100 % of control
CCCCCCCCCCCCN1C(C)=CS/C1=C\C=C\c1scc(C)[n+]1CCCCCCCCCCCC	B6C3F1 mice, Lewis lung carcinoma iv, survival T/C	90 % of control
Nc1nc(N)c2c(ccc3c2ccn3Cc2cccc([N+](=O)[O-])c2)n1	B6C3F1 mice, Lewis lung carcinoma iv, survival T/C	98 % of control
COc1cccc2c1C(=O)c1c(O)c3c(c(O)c1C2=O)C[C@@](O)(C(C)=O)C[C@@H]3OC1CC(N(Cc2ccccc2)Cc2ccccc2)C(O)C(C)O1 (stereo partly drawn)	B6C3F1 mice, Lewis lung carcinoma iv, survival T/C	103 % of control
Cc1cc(NCCCN(C)C)c2ccc3c(ccc4c(NCCCN(C)C)cc(C)nc43)c2n1	B6C3F1 mice, Lewis lung carcinoma iv, survival T/C	95 % of control
Cn1c2ccccc2c2ccc3c(c21)C(=O)C=CC3=O	B6C3F1 mice, Lewis lung carcinoma iv, survival T/C	99 % of control
CC(=O)Nc1ccc(Nc2ccc(C(=C3C=CC(=[N+](C)CCC#N)C=C3)c3ccc(N(C)CCC#N)cc3)cc2)cc1	B6C3F1 mice, Lewis lung carcinoma iv, survival T/C	98 % of control
Cc1cc(O)c2c(c1O)C(=O)C13C(=C2O)C(=O)C2C(O)C1C1C(O)C3C(=O)C3=C(O)c4c(O)cc(C)c(O)c4C(=O)C321 (stereo not drawn)	B6C3F1 mice, Lewis lung carcinoma iv, survival T/C	91 % of control
O=[n+]1c2ccccc2n([O-])c2ccccc21.[Cl][Ni][Cl]	B6C3F1 mice, Lewis lung carcinoma iv, survival T/C	93 % of control
CCc1nc(N)nc(N)c1-c1ccc(Cl)c([N+](=O)[O-])c1	B6C3F1 mice, Lewis lung carcinoma iv, survival T/C	104 % of control
C[CH2][Sn]([CH2]C)([CH2]C(=O)OC)[CH2]C(=O)OC	B6C3F1 mice, Lewis lung carcinoma iv, survival T/C	104 % of control

###

# System: B6C3F1 mice, Lewis lung carcinoma iv, survival T/C
# MEASUREMENT_NOTES: NCI In Vivo Anticancer Drug Screen. Data for tumor model Lewis Lung Carcinoma (intravenous) in B6C3F1 mice
# CONDITION_DETAILS: endpoint: median survival time; dose: 3.12 mg/kg/injection; schedule: Q01DX009 (ip); vehicle: saline with Tween-80; higher = longer survival
Toxic doses and inconclusive results are not listed.
A collection of compounds and their measured T/C
TEST_READOUT: T/C

COMPOUND	TEST_READOUT	OBS_VALUE
Nc1cc2c3c(cccc3c1)C(=O)N(CCN1CCCC1)C2=O	T/C	105 % of control
Cc1cc(NCCCN(C)C)c2ccc3c(ccc4c(NCCCN(C)C)cc(C)nc43)c2n1	T/C	100 % of control
Nc1nc(N)c2c(ccc3c2ccn3Cc2cccc([N+](=O)[O-])c2)n1	T/C	102 % of control
Nc1nnc[se]1	T/C	122 % of control
COc1cccc2c1C(=O)c1c(O)c3c(c(O)c1C2=O)C[C@@](O)(C(C)=O)C[C@@H]3OC1CC(N(Cc2ccccc2)Cc2ccccc2)C(O)C(C)O1 (some centres undefined)	T/C	114 % of control
CCCCCCCCCCCCSC1=C(Cl)C(=O)C(OC)=C(OC)C1=O	T/C	99 % of control
CCc1ccc(C2=C(O)C(=O)C(c3ccc(CC)cc3)=C(O)C2=O)cc1	T/C	111 % of control
O=C(CCCN1CCC(C(O)c2ccc(F)cc2)CC1)c1ccc(F)cc1 (centres undefined)	T/C	102 % of control
CCC1=C2C(=O)c3ccccc3C2=C(C)S(=O)(=O)O1	T/C	104 % of control
C[CH2][Sn]1([CH2]C)[O]OC(c2ccccc2)[O]1 (centres undefined)	T/C	100 % of control
CC(=O)Nc1ccc(Nc2ccc(C(=C3C=CC(=[N+](C)CCC#N)C=C3)c3ccc(N(C)CCC#N)cc3)cc2)cc1	T/C	104 % of control
CN=S(=O)(OCCCCCOS(=O)(=NC)c1ccccc1)c1ccccc1 (centres undefined)	T/C	101 % of control
O/N=C/c1ccccc1O.O/N=C/c1ccccc1O.[Cu]	T/C	100 % of control
COc1ccc(S(=O)(=O)N=N/C=C2\C=CC=CN2O)cc1OC	T/C	92 % of control
O=[n+]1c2ccccc2n([O-])c2ccccc21.[Cl][Ni][Cl]	T/C	93 % of control
C=C1N(C)c2ccccc2C1(C)C	T/C	107 % of control
Cc1cc(O)c2c(c1O)C(=O)C13C(=C2O)C(=O)C2C(O)C1C1C(O)C3C(=O)C3=C(O)c4c(O)cc(C)c(O)c4C(=O)C321 (centres undefined)	T/C	90 % of control
Cn1c2ccccc2c2ccc3c(c21)C(=O)C=CC3=O	T/C	106 % of control
CCCCCCCCCCCCCC#CC(=O)O	T/C	97 % of control

###

T/C: recorded values
# Tested on: B6C3F1 mice, Lewis lung carcinoma iv, survival T/C
# MEASUREMENT_NOTES: NCI In Vivo Anticancer Drug Screen. Data for tumor model Lewis Lung Carcinoma (intravenous) in B6C3F1 mice
# CONDITION_DETAILS: endpoint: median survival time; dose: 200.0 mg/kg/injection; schedule: Q01DX009 (ip); vehicle: saline with Tween-80; higher = longer survival
Toxic doses and inconclusive results are not listed.
TEST_READOUT: T/C

>>> df
                                   compound         obs_value
0      O=C1[C@H]2CCC[C@H]2[C@H]2CCC[C@@H]12  102 % of control
1                           CC1(C)CC1(Br)Br  100 % of control
2                           COc1cc(Cl)ccc1C   97 % of control
3               CC(/C=C/c1ccccc1)=Nc1ccccc1  105 % of control
4  BrC1CC(Br)c2c1c1c(c3c2C(Br)CC3Br)C(Br)CC1Br (stereo not given)  121 % of control
